List of Binding Signal (fold over 6E7 parental antibody) values.
- test.system: T1, human TREM2 (triggering receptor expressed on myeloid cells 2) (human) (UniProt Q9NZC2)
- T1 sequence (looked up): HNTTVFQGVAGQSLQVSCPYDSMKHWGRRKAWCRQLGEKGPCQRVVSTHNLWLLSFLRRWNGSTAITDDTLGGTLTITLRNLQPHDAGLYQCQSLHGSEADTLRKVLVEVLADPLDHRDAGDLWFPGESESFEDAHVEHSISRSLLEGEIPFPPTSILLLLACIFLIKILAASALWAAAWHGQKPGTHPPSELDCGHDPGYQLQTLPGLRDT
- assay.procedure: 1st screen, 110 nM Ab
The answer is to be given in fold; state only the numeric part.

binder: 6E7 antibody affinity modulation variant V6 (antibody, V domains shown) VH: EVQLVQSGAEVKKPGESLKISCKGSGYSFTSMWIAWVRQMPGKGLEWMGIIYPGDSDTRYSPSFQGQVTISADKSISTAYLQWSSLKASDTAMYFCARQRTFYYDSSDYFDYWGQGTLVTVSS VL: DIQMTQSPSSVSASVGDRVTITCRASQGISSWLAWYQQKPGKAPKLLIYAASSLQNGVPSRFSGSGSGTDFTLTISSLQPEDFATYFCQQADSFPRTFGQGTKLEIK
readout.unit: fold
obs.value: 0.2

binder: 6E7 antibody affinity modulation variant V45 (antibody, V domains shown) VH: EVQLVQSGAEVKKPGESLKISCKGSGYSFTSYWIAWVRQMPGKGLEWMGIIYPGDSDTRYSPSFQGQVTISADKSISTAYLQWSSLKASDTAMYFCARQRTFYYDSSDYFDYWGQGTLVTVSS VL: DIQMTQSPSSVSASVGDRVTITCRASQGISSFLAWYQQKPGKAPKLLIYAASSLQNGVPSRFSGSGSGTDFTLTISSLQPEDFATYFCQQADSFPRTFGQGTKLEIK
readout.unit: fold
obs.value: 0.43

binder: 6E7 antibody affinity modulation variant V34 (antibody, V domains shown) VH: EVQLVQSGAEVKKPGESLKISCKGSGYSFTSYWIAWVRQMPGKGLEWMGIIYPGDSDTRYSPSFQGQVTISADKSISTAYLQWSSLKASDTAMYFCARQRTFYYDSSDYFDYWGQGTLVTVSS VL: DIQMTQSPSSVSASVGDRVTITCRASQGISSWLAWYQQKPGKAPKLLIYAASSLQDGVPSRFSGSGSGTDFTLTISSLQPEDFATYFCQQADSFPRTFGQGTKLEIK
readout.unit: fold
obs.value: 0.34

binder: 6E7 antibody affinity modulation variant V19 (antibody, V domains shown) VH: EVQLVQSGAEVKKPGESLKISCKGSGYSFTSSWIAWVRQMPGKGLEWMGIIYPGDSDTRYSPSFQGQVTISADKSISTAYLQWSSLKASDTAMYFCARQRTFYYDSSDYFDYWGQGTLVTVSS VL: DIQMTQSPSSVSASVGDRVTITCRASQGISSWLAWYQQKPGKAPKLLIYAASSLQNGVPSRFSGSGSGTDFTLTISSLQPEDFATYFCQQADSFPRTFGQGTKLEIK
readout.unit: fold
obs.value: 0.59

binder: 6E7 antibody affinity modulation variant V82 (antibody, V domains shown) VH: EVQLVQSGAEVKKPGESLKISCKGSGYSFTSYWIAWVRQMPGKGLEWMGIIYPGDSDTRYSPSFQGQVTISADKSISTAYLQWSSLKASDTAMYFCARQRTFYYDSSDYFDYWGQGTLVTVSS VL: DIQMTQSPSSVSASVGDRVTITCRASQGISSWLAWYQQKPGKAPKLLIYAGSSLQNGVPSRFSGSGSGTDFTLTISSLQPEDFATYFCQQADSFPRTFGQGTKLEIK
readout.unit: fold
obs.value: 0.3

Let us examine a further case.
The recorded Binding Signal (fold over 6E7 parental antibody) for 6E7 antibody affinity modulation variant V10 (antibody, V domains shown) VH: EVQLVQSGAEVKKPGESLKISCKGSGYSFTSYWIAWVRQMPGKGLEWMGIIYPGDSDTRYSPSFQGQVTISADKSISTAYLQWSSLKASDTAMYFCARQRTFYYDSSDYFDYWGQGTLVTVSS VL: DIQMTQSPSSVSASVGDRVTITCRASQGISSWLAWYQQKPGKAPKLLIYSASSLQNGVPSRFSGSGSGTDFTLTISSLQPEDFATYFCQQADSFPRTFGQGTKLEIK is 0.76
